Provide the reported Log K of each item.
- assay overview: Logarithmic association constant determined by ethidium displacement from DNA co-polymers (G + C)
Give bare numbers.

* CN(C)CCNC(=O)c1cccc2c(NCCO)c3ccccc3nc12 | 7.61
* CN(C)CCCCCNC(=O)c1cccc2c(N)c3ccccc3nc12 | 7.45
* NCCNC(=O)c1cccc2c(N)c3ccccc3nc12 | 7.67
* CN(C)CCCCNC(=O)c1cccc2c(N)c3ccccc3nc12 | 7.43
* CN(C)CCNC(=O)c1ccc2c(N)c3ccccc3nc2c1 | 7.66

The following molecules each have a reported value; give each one's Log K.
1. Nc1c2ccccc2nc2c(C(=O)NCCN3CCCCC3)cccc12
2. CCCCNc1c2ccccc2nc2c(C(=O)NCCN(C)C)cccc12
3. CNc1c2ccccc2nc2c(C(=O)NCCN(C)C)cccc12
4. Nc1c2ccccc2nc2c(C(=O)NCCN3CCOCC3)cccc12
5. COCCNc1c2ccccc2nc2c(C(=O)NCCN(C)C)cccc12
6. CN(C)CCCCCCNC(=O)c1cccc2c(N)c3ccccc3nc12
7. Nc1c2ccccc2nc2c(C(=O)NCCc3ccccn3)cccc12

1: 7.1; 2: 7.69; 3: 7.65; 4: 7.58; 5: 7.35; 6: 7.4; 7: 7.03

====

Provide the reported Log K of each item.
- assay overview: Logarithmic association constant determined by ethidium displacement from DNA co-polymers (G + C)
Answers are plain numbers.

Look over these answered cases.
• CN1CCN(C(=O)c2cccc3c(N)c4ccccc4nc23)CC1 = 6.45
• CN(C)CCNC(=O)c1ccc2nc3ccccc3c(N)c2c1 = 7.55
• CN(C)CCCNC(=O)c1cccc2c(N)c3ccccc3nc12 = 7.6

The following compounds each have a reported value; give each one's Log K.
1. CCCNc1c2ccccc2nc2c(C(=O)NCCN(C)C)cccc12
2. Nc1c2ccccc2nc2c(C(=O)NCCNCCO)cccc12
3. CN(C)CCCCCCCNC(=O)c1cccc2c(N)c3ccccc3nc12

1: 7.79; 2: 7.73; 3: 7.3

====

- assay overview: Logarithmic association constant determined by ethidium displacement from DNA co-polymers (adenine & thymine)
Provide the reported Log K of each item.
Numbers only.

Look over these answered cases.
- CNc1c2ccccc2nc2c(C(=O)NCCN(C)C)cccc12: 7.17
- CCN(CC)CCNC(=O)c1cccc2c(N)c3ccccc3nc12: 7.26
- CN(C)CCNC(=O)c1cccc2c(NCCO)c3ccccc3nc12: 6.82
- CN(C)CCCCCCNC(=O)c1cccc2c(N)c3ccccc3nc12: 7.41
- Nc1c2ccccc2nc2c(C(=O)NCCNCCO)cccc12: 7.34

The following molecules each have a reported value; give each one's Log K.
1. CCCNc1c2ccccc2nc2c(C(=O)NCCN(C)C)cccc12
2. CN(C)CCCCNC(=O)c1cccc2c(N)c3ccccc3nc12
3. CN(C)CCCNC(=O)c1cccc2c(N)c3ccccc3nc12
4. CN(C)CCCCCCCNC(=O)c1cccc2c(N)c3ccccc3nc12
5. CN(C)CCNC(=O)c1cccc2c(NCCN(C)C)c3ccccc3nc12
6. Nc1c2ccccc2nc2c(C(=O)NCCc3ccccn3)cccc12
7. Nc1c2ccccc2nc2c(C(=O)NCCN3CCCCC3)cccc12
8. COCCNc1c2ccccc2nc2c(C(=O)NCCN(C)C)cccc12

7.23
7.49
7.51
7.43
7.83
6.94
7.12
6.73

From: ChEMBL document CHEMBL1122520
